- test-summary: Gelling of water-immiscible cosmetic liquids in 96 well glass micro-titre plate
- Assay type: physicochemical
- Parameters: key: gel; g4: gel after overnight (18 hrs) storage at 4° C.; g22: gel after overnight (18 hrs) storage at 22° C.; sg: soft gel; sg22: soft gel after overnight (18 hrs) storage at 22° C.; solution; *: the test at 4° C. was not carried out
- cond: 5% cellobiose ester in Finsolv TN

molecule: CCCCCCCCC(=O)OCC1OC(OC2C(COC(=O)CCCCCCCC)OC(OC(=O)c3ccccc3)C(OC(=O)CCCCCCCC)C2OC(=O)CCCCCCCC)C(OC(=O)CCCCCCCC)C(OC(=O)CCCCCCCC)C1OC(=O)CCCCCCCC (mixture of isomers) [Ex 1.1]
gelling of Finsolv TN: g4
--
molecule: CCCCCCCCC(=O)OCC1OC(OC2C(COC(=O)CCCCCCCC)OC(OC(=O)c3ccccc3)C(OC(=O)CCCCCCCC)C2OC(=O)CCCCCCCC)C(OC(=O)CCCCCCCC)C(OC(=O)CCCCCCCC)C1OC(=O)CCCCCCCC (mixture of isomers) [Ex 1.2]
gelling of Finsolv TN: sol
--
molecule: CCCCCCCCC(=O)OCC1OC(OC2C(COC(=O)CCCCCCCC)OC(OC(=O)c3ccc4ccccc4c3)C(OC(=O)CCCCCCCC)C2OC(=O)CCCCCCCC)C(OC(=O)CCCCCCCC)C(OC(=O)CCCCCCCC)C1OC(=O)CCCCCCCC (mixture of isomers) [Ex 1.4]
gelling of Finsolv TN: sol
--
molecule: CCCCCCCCC(=O)OCC1OC(OC2C(COC(=O)CCCCCCCC)OC(OC(=O)c3ccc4ccccc4c3)C(OC(=O)CCCCCCCC)C2OC(=O)CCCCCCCC)C(OC(=O)CCCCCCCC)C(OC(=O)CCCCCCCC)C1OC(=O)CCCCCCCC (mixture of isomers) [Ex 1.3]
gelling of Finsolv TN: sol
